Assay: Cardiotonic activity in guinea pig left atrial muscles assessed as minimum positive inotropic effective concentration causing myocardial contraction
Type: functional, Cavia porcellus, Muscle tissue
Property Measured: Activity (µM)
Lab book: enter the figure in µM, no units written.

Task: Entry C[C@H]1O[C@H](O[C@H]2CC[C@]3(C=O)[C@H]4C[C@@H](O)[C@]5(C)[C@@H](C6=CC(=O)OC6)CC[C@]5(O)[C@@H]4CC[C@]3(O)C2)[C@H](O)[C@H](O)[C@H]1O : reported Activity = ?
Result: 0.5

Task: Entry CO[C@H]1[C@@H](O[C@H]2CC[C@]3(C=O)[C@H]4CC[C@]5(C)[C@@H](C6=CC(=O)OC6)CC[C@]5(O)[C@@H]4CC[C@]3(O)C2)O[C@H](C)[C@@H](O)[C@H]1O (stereo in doubt; 20) [STROPHATHOJAVOSIDE] : reported Activity = ?
Result: 0.5

Task: Entry C[C@@H]1O[C@H](O[C@H]2CC[C@]3(C(=O)O)[C@H]4C[C@@H](O)[C@]5(C)[C@@H](C6=CC(=O)OC6)CC[C@]5(O)[C@@H]4CC[C@]3(O)C2)[C@H](O)[C@H](O)[C@H]1O [ANTIAROSIDE G] : reported Activity = ?
Result: 3.75

----------
Assay: Safety index, ratio of arrhythmogenic concentration to minimum positive inotropic effective concentration causing myocardial contraction in guinea pig left atrial muscles
Type: toxicity, tissue-based, Cavia porcellus, Muscle tissue
Details: isolated left atrial muscles
Property Measured: selectivity ratio

Task: Entry C[C@@H]1O[C@H](O[C@H]2CC[C@@]3(C(=O)O)[C@H](CC[C@@H]4[C@@H]3CC[C@]3(C)[C@@H](C5=CC(=O)OC5)CC[C@]43O)C2)[C@H](O)[C@H](O)[C@H]1O [ANTIAROSIDE E] : reported selectivity ratio = ?
Result: 10

Task: Entry C[C@@H]1O[C@H](O[C@H]2CC[C@]3(C=O)[C@H]4C[C@@H](O)[C@]5(C)[C@@H](C6=CC(=O)OC6)CC[C@]5(O)[C@@H]4CC[C@]3(O)C2)[C@H](O)[C@H](O)[C@H]1O : reported selectivity ratio = ?
Result: 10

Task: Entry C[C@@H]1O[C@@H](O[C@H]2CC[C@]3(C=O)[C@H]4CC[C@]5(C)[C@@H](C6=CC(=O)OC6)CC[C@]5(O)[C@@H]4CC[C@]3(O)C2)[C@H](O)[C@H](O)[C@H]1O : reported selectivity ratio = ?
Result: 10
